target: human ether-à-go-go-related gene (hERG) potassium channel (human, UniProt Q12809); assay: primary screen, population patch clamp on CHO cells stably expressing hERG; higher = less effect of the substance;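 further: peak tail current of the secondary pulse compared with the same well before compound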
Sequence (Q12809 whole entry, looked up): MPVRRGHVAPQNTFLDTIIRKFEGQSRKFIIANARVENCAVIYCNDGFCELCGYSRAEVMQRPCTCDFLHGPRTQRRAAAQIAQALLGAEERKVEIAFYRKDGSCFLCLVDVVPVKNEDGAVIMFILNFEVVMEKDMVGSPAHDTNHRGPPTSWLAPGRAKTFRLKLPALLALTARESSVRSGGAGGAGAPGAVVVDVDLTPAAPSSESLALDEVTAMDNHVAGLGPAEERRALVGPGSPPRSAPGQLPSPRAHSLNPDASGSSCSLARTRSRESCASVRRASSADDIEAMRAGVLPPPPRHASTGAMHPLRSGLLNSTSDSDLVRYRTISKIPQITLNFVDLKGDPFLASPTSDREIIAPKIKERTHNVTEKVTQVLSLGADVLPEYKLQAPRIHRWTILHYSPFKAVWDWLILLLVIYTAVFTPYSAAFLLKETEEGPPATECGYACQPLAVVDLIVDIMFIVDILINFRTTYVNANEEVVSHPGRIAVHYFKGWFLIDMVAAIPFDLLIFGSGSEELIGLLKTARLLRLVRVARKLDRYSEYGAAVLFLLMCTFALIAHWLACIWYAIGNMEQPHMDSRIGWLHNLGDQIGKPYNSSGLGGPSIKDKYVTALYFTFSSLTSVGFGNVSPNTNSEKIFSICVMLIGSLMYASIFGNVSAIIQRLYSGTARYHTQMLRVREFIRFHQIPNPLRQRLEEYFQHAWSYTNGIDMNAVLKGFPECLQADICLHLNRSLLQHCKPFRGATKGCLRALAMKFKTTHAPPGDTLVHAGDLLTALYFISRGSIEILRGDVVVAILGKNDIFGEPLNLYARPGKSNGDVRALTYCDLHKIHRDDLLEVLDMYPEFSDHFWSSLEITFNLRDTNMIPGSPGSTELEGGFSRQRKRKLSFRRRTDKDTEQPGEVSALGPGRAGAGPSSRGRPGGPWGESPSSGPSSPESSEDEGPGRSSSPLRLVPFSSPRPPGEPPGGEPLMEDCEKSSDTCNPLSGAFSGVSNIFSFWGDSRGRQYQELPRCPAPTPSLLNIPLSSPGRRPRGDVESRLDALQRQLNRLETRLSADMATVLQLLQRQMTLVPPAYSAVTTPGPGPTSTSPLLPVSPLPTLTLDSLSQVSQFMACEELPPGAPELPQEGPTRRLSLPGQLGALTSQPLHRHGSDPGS
The whole screen tested about 310,000 compounds, of which about 14,000 (4.5%) showed an effect of 50% or more. Effects have a minus sign here. This excerpt belongs to a sample that is enriched for strong results.
For each of the compounds below, state its hERG current change (%, negative = inhibition) at 10uM.
Answers are plain numbers, in %.

In [3]: df
Out[3]:
                                   compound  readout_unit  reported_measurement
0        CCOc1cc(S(=O)(=O)n2cnc(C)c2)ccc1Cl             %                 -8.24
1      COc1ccc(NC(=O)CCCc2ccc(OC)c(C)c2)cc1             %                  3.93
2  CC(C)c1nc2oc3c(NCc4ccccn4)ncnc3c2c2c1COC(C)(C)C2             %                  5.62
3  FC(F)(F)c1cccc(CNC2c3ccccc3-c3ccccc32)c1.O=C(O)C(=O)O             %                  20.4
4        COc1cccc(/C=N/Nc2cc(Cl)nc(C)n2)c1O             %                  20.8

Give one value of hERG current change (%, negative = inhibition) at 10uM per listed compound.
1. Cc1cccc(OCC(=O)Nc2cc(C)ccc2O)c1
2. COc1ccccc1NS(=O)(=O)c1cccc(C(=O)NN=C2CCCC2)c1
3. COC(=O)c1sccc1NC(=O)CC1NCCNC1=O (stereo not shown)

result:
1: 12.4; 2: 0.33; 3: 0.0435

Give one value of hERG current change (%, negative = inhibition) at 10uM per listed compound.
1. COc1ccc(N(CC(=O)Nc2cc(Cl)ccc2OC)C2=NC3CS(=O)(=O)CC3S2)cc1 (stereo not shown)
2. C=CCN(CC=C)C(=O)C(=O)c1ccn(-c2c(C)csc2C(=O)OC)c1

result:
1. -7.35
2. -70.3

Origin of the recorded values: paper PMC4336329
